- System: BT-549 breast
- experiment.description: NCI tumour cell line growth inhibition, 48 h
quantity.name: TGI

Some entries whose results are on file:
>  <molecule>
c1ccc2c(c1)nnn2C1CCCCO1 (configuration not stated)

>  <test.value>
> 100 µM

$$$$
>  <molecule>
O=C(CSc1nc2ccc(I)cc2c(=O)n1Cc1ccccc1)Nc1ccccc1

>  <test.value>
54.6 µM

$$$$
>  <molecule>
COc1ccc(NC(=O)CSC(=O)c2ccccc2)c(SCCSSCCSc2cc(OC)ccc2NC(=O)CSC(=O)c2ccccc2)c1

>  <test.value>
> 100 µM

$$$$

Need TGI, item CC1Cc2c(Cl)ncnc2N(C)c2ccccc21 (configuration not stated) 33.9 µM

Need TGI, item `COc1cc2nc(-c3cccs3)nc(Nc3ccccc3C(=O)NN)c2cc1OC` > 100 µM

Need TGI, item `CCOc1ccc2c(c1)C(/C(C(Cl)=C(Cl)Cl)=[N+](/[O-])OC(=O)c1ccccc1)=N2` 97.8 µM

Need TGI, item CC1(C)OCC2OC(n3cnc4c(N)nc(Cl)nc43)C(OS(C)(=O)=O)C2O1 (configuration not stated) > 100 µM

Need TGI, item `Nc1ccc(C#Cc2ccccc2C#CCCCCO)cc1` 34.8 µM

Need TGI, item `Cc1ccc2ccccc2c1CSc1nc(N)nc2c1ncn2CC(C)C` > 100 µM

Need TGI, item `CCCCCCC(=O)NC1=C(N2CC2)C(=O)C(NC(=O)CCCCCC)=C(N2CC2)C1=O` > 100 µM

Need TGI, item CCOc1ccccc1N=NC1C(=O)N(C(=O)CC(=O)Nc2ccccc2C)N=C1C (configuration not stated) > 100 µM

Need TGI, item O=C(CC(=O)N1N=C(c2ccccc2)C(N=Nc2ccc(S(=O)(=O)CCOS(=O)(=O)O)cc2)C1=O)Nc1ccc(Cl)cc1 (configuration not stated) > 100 µM

###

- Test system: MCF7 breast
- experiment.description: NCI tumour cell line growth inhibition, 48 h
List of TGI values.

>  <compound>
Oc1c(C(c2ccc(F)cc2)N2CCCCC2)ccc2cncnc12 (centres undefined)

>  <test.value>
> 39.4 µM

$$$$
>  <compound>
COc1cc(C2c3cccc4cccc(c34)C3CCC(=O)N32)cc(OC)c1O (centres undefined)

>  <test.value>
> 50 µM

$$$$

Need TGI, item `Cc1cc(N(CCC#N)S(=O)(=O)c2ccccc2)ccc1C=Nc1ccc(C(=O)O)cc1` > 100 µM

Need TGI, item `O=S(=O)(O)c1cc(S(=O)(=O)O)c2cc(N=Nc3ccc(N=Nc4ccc(/C=C/c5ccc(N=[N+]([O-])c6ccc(/C=C/c7ccc(N=Nc8ccc(N=Nc9ccc%10cc(S(=O)(=O)O)cc(S(=O)(=O)O)c%10c9)cc8)cc7S(=O)(=O)O)c(S(=O)(=O)O)c6)cc5S(=O)(=O)O)c(S(=O)(=O)O)c4)cc3)ccc2c1` > 100 µM

Need TGI, item `COc1cc2ncnc(Oc3ccc(NC(=O)Nc4ccc(CN5CCOCC5)c(C(F)(F)F)c4)c4ccccc34)c2cc1OC` 10.7 µM

Need TGI, item `CCC[CH2][Sn]1([CH2]CCC)[O]C(=O)c2cccc([N+](=O)[O-])c2C(=O)[O]1` 1.13 µM

###

List of log10(TGI) values.
- Test system: HT29 colon
- experiment.description: NCI tumour cell line growth inhibition, 48 h
Kindly note that the scale is log10 and the underlying TGI is in µM.

Some entries whose results are on file:
>  <compound>
CCC(=O)OCOc1ccc(/C=C2\CCC(CN(C)C)C2=O)cc1 (stereo not given)

>  <log10(TGI)>
1.41

$$$$
>  <compound>
C[C@@H]1CC[C@@H]2[C@@H]1[C@H](OC(=O)/C=C/C1CCCCC1)[C@]1(C3CCCCC3)C[C@@H](OC(=O)CO)[C@@]2(C)O1

>  <log10(TGI)>
1.43

$$$$

Need log10(TGI), item `CCCCCCCCCCCCCCNCC(OC)OC` 1.16

Need log10(TGI), item `COC(=O)N[C@@H]1C[C@H]2CC[C@]1(O[Si](C(C)C)(C(C)C)C(C)C)C(=O)C2` 1.68

Need log10(TGI), item `C=CC(=O)N1C/C(=C\c2ccc(OC)cc2)C(=O)/C(=C/c2ccc(OC)cc2)C1` 0.46
